Molecular target: T1, hFc-tagged human 4-1BB extracellular domain protein (4-1BB-hFc) (human, UniProt Q07011 24-186, limits assumed)
T1 construct: also called immunogen A; 4-1BB^ECD-hFc; not shown: human IgG Fc fragment (hFc) of the pCpC vector
Assay: ELISA, coated human 4-1BB-hFc; Ab 10 ug/ml
measurement.label: OD450 nm (OD450 nm)

binder: 170D7F2 (antibody, V domains shown) VH: QVQLVQSGAEVKKPGASVKVSCKASGYTFTSYDINWVRQATGQGLEWMGWMNPNSGNTGYAQKFQGRVTMTRNTSISTAYMELSSLRSEDTAVYYCARETGPFDYWGQGTLVTVSS VL: DIQMTQSPSSLSASVGDRVTITCRASQRINNYLNWYQQKPGKAPKLLIYGASSLQSGVPSRFSGSGSGTDFTLTISSLQPEDFATYYCQQSYSTPFTFGPGTKVDIK
measurement.label: OD450 nm
quantitative.result: 3.44
